# credit: the kinase profiling compilation of Christmann-Franck et al. (2016)

assay system: MAP4K4 (human)
assay text: KINOMEscan competition binding
experimental parameters: compound 10.0 µM
Kindly supply the reported kinase still bound, per cent of control values for the records listed here.
Give bare numbers, in %.

Consider the following illustrative entries.
| smiles representation | readout label | measured |
| --- | --- | --- |
| COC(=O)Nc1ccc(-c2nc(N3CCOCC3)c3cnn(C4CCN(C(=O)OC)CC4)c3n2)cc1 | kinase still bound, per cent of control | 88 |
| CCC(=O)N1CCN(c2ccc(-n3c(=O)ccc4cnc5ccc(-c6cnc7ccccc7c6)cc5c43)cc2C(F)(F)F)CC1 | kinase still bound, per cent of control | 5.2 |
| COc1ccc(-c2ccc3c(N4CCOCC4)nc(N4C[C@@H](C)O[C@@H](C)C4)nc3n2)cc1CO | kinase still bound, per cent of control | 88 |

Consider now this further molecule.
Need kinase still bound, per cent of control, item CC(C)n1nc(-c2cc3cc(O)ccc3[nH]2)c2c(N)ncnc21
38

====

Kindly supply the reported per cent of control values for the records listed here.
assay system: PKN2 (human) (UniProt Q16513)
Sequence (Q16513 whole entry, looked up): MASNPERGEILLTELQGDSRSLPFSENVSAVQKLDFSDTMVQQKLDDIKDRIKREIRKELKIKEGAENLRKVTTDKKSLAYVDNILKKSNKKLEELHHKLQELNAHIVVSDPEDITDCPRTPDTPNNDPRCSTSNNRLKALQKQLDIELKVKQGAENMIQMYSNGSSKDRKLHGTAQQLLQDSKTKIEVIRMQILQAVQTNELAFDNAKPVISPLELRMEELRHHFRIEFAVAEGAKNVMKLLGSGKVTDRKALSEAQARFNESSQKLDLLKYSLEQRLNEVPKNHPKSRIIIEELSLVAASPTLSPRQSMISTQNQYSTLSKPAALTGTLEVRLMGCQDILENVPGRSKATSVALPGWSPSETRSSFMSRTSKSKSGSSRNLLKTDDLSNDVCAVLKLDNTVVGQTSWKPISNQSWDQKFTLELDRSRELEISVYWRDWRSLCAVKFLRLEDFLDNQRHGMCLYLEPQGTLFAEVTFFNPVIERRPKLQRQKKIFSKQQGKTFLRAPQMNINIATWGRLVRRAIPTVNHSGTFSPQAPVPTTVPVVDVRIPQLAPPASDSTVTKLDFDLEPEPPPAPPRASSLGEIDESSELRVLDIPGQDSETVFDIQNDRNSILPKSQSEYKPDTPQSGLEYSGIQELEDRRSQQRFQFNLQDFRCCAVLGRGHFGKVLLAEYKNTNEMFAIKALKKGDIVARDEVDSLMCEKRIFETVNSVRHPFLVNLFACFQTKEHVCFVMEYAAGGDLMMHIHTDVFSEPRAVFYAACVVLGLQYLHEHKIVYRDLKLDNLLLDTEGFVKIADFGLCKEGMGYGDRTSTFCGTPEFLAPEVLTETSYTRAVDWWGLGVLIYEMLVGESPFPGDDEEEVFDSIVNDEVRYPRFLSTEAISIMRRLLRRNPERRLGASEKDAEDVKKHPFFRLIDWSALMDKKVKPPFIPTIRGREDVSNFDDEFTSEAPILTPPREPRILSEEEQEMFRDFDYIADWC
experimental parameters: compound 10.0 µM
One number for each entry, in %.

Consider the following illustrative entries.
| smiles representation | measured |
| --- | --- |
| COC(=O)Nc1ccc(-c2nc(N3CCOCC3)c3cnn(C4CCN(C(=O)OC)CC4)c3n2)cc1 | 101 |
| CCC(=O)N1CCN(c2ccc(-n3c(=O)ccc4cnc5ccc(-c6cnc7ccccc7c6)cc5c43)cc2C(F)(F)F)CC1 | 114 |
| COc1ccc(-c2ccc3c(N4CCOCC4)nc(N4C[C@@H](C)O[C@@H](C)C4)nc3n2)cc1CO | 105 |

Consider now this further compound.
Need per cent of control, item CC(C)n1nc(-c2cc3cc(O)ccc3[nH]2)c2c(N)ncnc21
22

====

assay system: STK17A (human) (UniProt Q9UEE5)
Sequence (Q9UEE5 whole entry, looked up): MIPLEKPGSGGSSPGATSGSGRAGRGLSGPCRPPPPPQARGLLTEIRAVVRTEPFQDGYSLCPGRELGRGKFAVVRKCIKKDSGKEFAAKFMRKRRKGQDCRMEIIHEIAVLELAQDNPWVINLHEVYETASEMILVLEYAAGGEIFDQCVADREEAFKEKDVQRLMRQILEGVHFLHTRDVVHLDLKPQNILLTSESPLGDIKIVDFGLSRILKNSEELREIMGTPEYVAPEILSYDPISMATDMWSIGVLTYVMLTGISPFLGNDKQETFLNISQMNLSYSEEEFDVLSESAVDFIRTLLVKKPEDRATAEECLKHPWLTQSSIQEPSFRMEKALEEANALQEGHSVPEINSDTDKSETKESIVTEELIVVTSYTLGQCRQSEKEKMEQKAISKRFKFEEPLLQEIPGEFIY
assay text: KINOMEscan competition binding
experimental parameters: compound 10.0 µM
Kindly supply the reported kinase still bound, per cent of control values for the records listed here.
Returns: string containing the numeric result and its unit.

| smiles representation | kinase still bound, per cent of control |
| --- | --- |
| COc1ccc(-c2ccc3c(N4CCOCC4)nc(N4C[C@@H](C)O[C@@H](C)C4)nc3n2)cc1CO | 96% |
| CCC(=O)N1CCN(c2ccc(-n3c(=O)ccc4cnc5ccc(-c6cnc7ccccc7c6)cc5c43)cc2C(F)(F)F)CC1 | 93% |
| CC(C)n1nc(-c2cc3cc(O)ccc3[nH]2)c2c(N)ncnc21 | 81% |

Consider now this further molecule.
Need kinase still bound, per cent of control, item COC(=O)Nc1ccc(-c2nc(N3CCOCC3)c3cnn(C4CCN(C(=O)OC)CC4)c3n2)cc1
91%

====

assay system: DAPK3 (human)
assay text: KINOMEscan competition binding
experimental parameters: compound 10.0 µM
Kindly supply the reported kinase still bound, per cent of control values for the records listed here.
Answers are plain numbers, in %.

Return reported kinase still bound, per cent of control values for all items listed beneath this line.
1. COC(=O)Nc1ccc(-c2nc(N3CCOCC3)c3cnn(C4CCN(C(=O)OC)CC4)c3n2)cc1
2. CCC(=O)N1CCN(c2ccc(-n3c(=O)ccc4cnc5ccc(-c6cnc7ccccc7c6)cc5c43)cc2C(F)(F)F)CC1
3. CC(C)n1nc(-c2cc3cc(O)ccc3[nH]2)c2c(N)ncnc21

1. 92
2. 82
3. 2.8

Need kinase still bound, per cent of control, item COc1ccc(-c2ccc3c(N4CCOCC4)nc(N4C[C@@H](C)O[C@@H](C)C4)nc3n2)cc1CO
89

====

assay system: FRK (human) (UniProt P42685)
Sequence (P42685 whole entry, looked up): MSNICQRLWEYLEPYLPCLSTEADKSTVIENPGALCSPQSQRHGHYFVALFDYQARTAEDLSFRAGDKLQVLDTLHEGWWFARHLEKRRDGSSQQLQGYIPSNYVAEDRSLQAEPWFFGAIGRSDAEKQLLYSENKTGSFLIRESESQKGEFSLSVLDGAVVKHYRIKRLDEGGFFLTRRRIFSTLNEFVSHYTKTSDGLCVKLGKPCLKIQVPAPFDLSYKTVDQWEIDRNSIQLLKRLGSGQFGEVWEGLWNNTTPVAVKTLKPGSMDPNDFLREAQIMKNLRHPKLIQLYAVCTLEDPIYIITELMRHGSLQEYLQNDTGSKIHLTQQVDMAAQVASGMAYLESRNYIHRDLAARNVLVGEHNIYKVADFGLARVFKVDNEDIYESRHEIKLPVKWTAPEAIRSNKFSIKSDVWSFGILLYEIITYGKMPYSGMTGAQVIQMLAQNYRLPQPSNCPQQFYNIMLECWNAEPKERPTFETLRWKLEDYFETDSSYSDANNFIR
assay text: KINOMEscan competition binding
experimental parameters: compound 10.0 µM
readout label: kinase still bound, per cent of control (%)
Numbers only, in %.

Consider the following illustrative entries.
| smiles representation | kinase still bound, per cent of control (%) |
| --- | --- |
| COC(=O)Nc1ccc(-c2nc(N3CCOCC3)c3cnn(C4CCN(C(=O)OC)CC4)c3n2)cc1 | 99 |
| CCC(=O)N1CCN(c2ccc(-n3c(=O)ccc4cnc5ccc(-c6cnc7ccccc7c6)cc5c43)cc2C(F)(F)F)CC1 | 60 |
| CC(C)n1nc(-c2cc3cc(O)ccc3[nH]2)c2c(N)ncnc21 | 12 |

# returns recorded kinase still bound, per cent of control (system: FRK (human) (UniProt P42685)) for COc1ccc(-c2ccc3c(N4CCOCC4)nc(N4C[C@@H](C)O[C@@H](C)C4)nc3n2)cc1CO
100

====

assay system: UniProt:O94921
Sequence (O94921 whole entry, looked up): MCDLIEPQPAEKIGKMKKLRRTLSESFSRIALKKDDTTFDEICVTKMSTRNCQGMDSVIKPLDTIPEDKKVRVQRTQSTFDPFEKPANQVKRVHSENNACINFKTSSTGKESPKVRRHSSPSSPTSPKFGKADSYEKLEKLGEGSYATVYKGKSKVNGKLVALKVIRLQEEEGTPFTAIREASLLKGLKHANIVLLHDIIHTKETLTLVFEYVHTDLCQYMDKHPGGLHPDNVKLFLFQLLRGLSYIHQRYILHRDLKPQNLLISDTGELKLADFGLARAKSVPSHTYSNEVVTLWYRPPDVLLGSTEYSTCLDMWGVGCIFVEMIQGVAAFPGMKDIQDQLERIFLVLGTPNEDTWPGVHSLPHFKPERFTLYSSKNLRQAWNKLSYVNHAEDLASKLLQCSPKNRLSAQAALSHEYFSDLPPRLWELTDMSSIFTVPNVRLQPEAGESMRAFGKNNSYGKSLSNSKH
assay text: KINOMEscan competition binding
experimental parameters: compound 10.0 µM
readout label: per cent of control (%)
One number for each entry, in %.

Consider the following illustrative entries.
| smiles representation | assay system | result units | per cent of control |
| --- | --- | --- | --- |
| CC(C)n1nc(-c2cc3cc(O)ccc3[nH]2)c2c(N)ncnc21 | UniProt:O94921 | % | 100 |
| CCC(=O)N1CCN(c2ccc(-n3c(=O)ccc4cnc5ccc(-c6cnc7ccccc7c6)cc5c43)cc2C(F)(F)F)CC1 | UniProt:O94921 | % | 99 |
| COC(=O)Nc1ccc(-c2nc(N3CCOCC3)c3cnn(C4CCN(C(=O)OC)CC4)c3n2)cc1 | UniProt:O94921 | % | 100 |

Consider now this further compound.
Need per cent of control, item COc1ccc(-c2ccc3c(N4CCOCC4)nc(N4C[C@@H](C)O[C@@H](C)C4)nc3n2)cc1CO
100

====

Kindly supply the reported kinase still bound, per cent of control values for the records listed here.
assay system: UniProtKB P07947
Sequence (P07947 whole entry, looked up): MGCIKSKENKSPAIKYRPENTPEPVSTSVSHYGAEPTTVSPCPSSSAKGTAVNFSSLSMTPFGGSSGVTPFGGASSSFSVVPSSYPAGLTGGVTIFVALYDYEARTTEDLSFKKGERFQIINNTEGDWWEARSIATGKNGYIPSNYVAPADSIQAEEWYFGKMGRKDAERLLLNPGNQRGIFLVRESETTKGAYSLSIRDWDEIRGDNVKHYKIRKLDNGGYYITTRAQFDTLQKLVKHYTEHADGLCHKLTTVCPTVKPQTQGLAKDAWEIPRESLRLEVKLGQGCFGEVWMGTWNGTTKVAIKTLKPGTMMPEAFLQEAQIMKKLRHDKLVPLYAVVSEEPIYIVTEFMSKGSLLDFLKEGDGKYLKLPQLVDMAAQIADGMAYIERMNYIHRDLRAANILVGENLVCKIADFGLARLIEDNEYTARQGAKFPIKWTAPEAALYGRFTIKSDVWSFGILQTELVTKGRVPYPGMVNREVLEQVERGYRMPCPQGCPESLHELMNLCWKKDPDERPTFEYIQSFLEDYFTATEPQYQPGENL
assay text: KINOMEscan competition binding
experimental parameters: compound 10.0 µM
Returns: string containing the numeric result and its unit.

Consider the following illustrative entries.
| smiles representation | readout label | measured |
| --- | --- | --- |
| COC(=O)Nc1ccc(-c2nc(N3CCOCC3)c3cnn(C4CCN(C(=O)OC)CC4)c3n2)cc1 | kinase still bound, per cent of control | 97% |
| COc1ccc(-c2ccc3c(N4CCOCC4)nc(N4C[C@@H](C)O[C@@H](C)C4)nc3n2)cc1CO | kinase still bound, per cent of control | 100% |
| CC(C)n1nc(-c2cc3cc(O)ccc3[nH]2)c2c(N)ncnc21 | kinase still bound, per cent of control | 3.2% |

Need kinase still bound, per cent of control, item CCC(=O)N1CCN(c2ccc(-n3c(=O)ccc4cnc5ccc(-c6cnc7ccccc7c6)cc5c43)cc2C(F)(F)F)CC1
74%

====

assay system: PKN2 (human) (UniProt Q16513)
assay text: KINOMEscan competition binding
experimental parameters: compound 10.0 µM
readout label: kinase still bound, per cent of control (%)
Answers are plain numbers, in %.

Return reported kinase still bound, per cent of control values for all items listed beneath this line.
1. CCC(=O)N1CCN(c2ccc(-n3c(=O)ccc4cnc5ccc(-c6cnc7ccccc7c6)cc5c43)cc2C(F)(F)F)CC1
2. CC(C)n1nc(-c2cc3cc(O)ccc3[nH]2)c2c(N)ncnc21
3. COC(=O)Nc1ccc(-c2nc(N3CCOCC3)c3cnn(C4CCN(C(=O)OC)CC4)c3n2)cc1
4. COc1ccc(-c2ccc3c(N4CCOCC4)nc(N4C[C@@H](C)O[C@@H](C)C4)nc3n2)cc1CO

65
86
100
100

====

Kindly supply the reported per cent of control values for the records listed here.
assay system: IGF1R (human)
assay text: KINOMEscan competition binding
experimental parameters: compound 10.0 µM

Consider the following illustrative entries.
| smiles representation | assay system | readout label | measured |
| --- | --- | --- | --- |
| CCC(=O)N1CCN(c2ccc(-n3c(=O)ccc4cnc5ccc(-c6cnc7ccccc7c6)cc5c43)cc2C(F)(F)F)CC1 | IGF1R (human) | per cent of control | 94% |
| CC(C)n1nc(-c2cc3cc(O)ccc3[nH]2)c2c(N)ncnc21 | IGF1R (human) | per cent of control | 100% |

Return reported per cent of control values for all items listed beneath this line.
1. COc1ccc(-c2ccc3c(N4CCOCC4)nc(N4C[C@@H](C)O[C@@H](C)C4)nc3n2)cc1CO
2. COC(=O)Nc1ccc(-c2nc(N3CCOCC3)c3cnn(C4CCN(C(=O)OC)CC4)c3n2)cc1

1. 100%
2. 98%

====

assay system: STK33 (human) (UniProt Q9BYT3)
Sequence (Q9BYT3 whole entry, looked up): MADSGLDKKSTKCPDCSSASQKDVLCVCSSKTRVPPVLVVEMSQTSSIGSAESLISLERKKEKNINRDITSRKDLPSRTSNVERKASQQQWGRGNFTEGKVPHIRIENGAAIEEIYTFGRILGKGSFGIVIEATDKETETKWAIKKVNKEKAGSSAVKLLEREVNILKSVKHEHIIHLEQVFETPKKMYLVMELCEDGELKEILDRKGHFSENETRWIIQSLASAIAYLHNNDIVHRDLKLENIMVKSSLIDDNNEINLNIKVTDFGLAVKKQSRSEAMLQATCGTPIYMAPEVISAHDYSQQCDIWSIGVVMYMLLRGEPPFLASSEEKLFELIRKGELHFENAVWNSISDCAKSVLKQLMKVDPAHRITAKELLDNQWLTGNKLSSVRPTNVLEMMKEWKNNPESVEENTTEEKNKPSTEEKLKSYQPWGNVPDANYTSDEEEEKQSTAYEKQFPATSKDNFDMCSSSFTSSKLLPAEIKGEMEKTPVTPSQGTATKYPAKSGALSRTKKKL
assay text: KINOMEscan competition binding
experimental parameters: compound 10.0 µM
readout label: kinase still bound, per cent of control (%)
Answers are plain numbers, in %.

Consider the following illustrative entries.
| smiles representation | result units | kinase still bound, per cent of control |
| --- | --- | --- |
| COc1ccc(-c2ccc3c(N4CCOCC4)nc(N4C[C@@H](C)O[C@@H](C)C4)nc3n2)cc1CO | % | 95 |
| CC(C)n1nc(-c2cc3cc(O)ccc3[nH]2)c2c(N)ncnc21 | % | 45 |
| CCC(=O)N1CCN(c2ccc(-n3c(=O)ccc4cnc5ccc(-c6cnc7ccccc7c6)cc5c43)cc2C(F)(F)F)CC1 | % | 90 |

Consider now this further compound.
Need kinase still bound, per cent of control, item COC(=O)Nc1ccc(-c2nc(N3CCOCC3)c3cnn(C4CCN(C(=O)OC)CC4)c3n2)cc1
84
